# TARGET UNDER TEST: neuraminidase of A/WSN/1933 (H1N1) (Influenza A virus)
# Sequence (P03470 whole entry, looked up): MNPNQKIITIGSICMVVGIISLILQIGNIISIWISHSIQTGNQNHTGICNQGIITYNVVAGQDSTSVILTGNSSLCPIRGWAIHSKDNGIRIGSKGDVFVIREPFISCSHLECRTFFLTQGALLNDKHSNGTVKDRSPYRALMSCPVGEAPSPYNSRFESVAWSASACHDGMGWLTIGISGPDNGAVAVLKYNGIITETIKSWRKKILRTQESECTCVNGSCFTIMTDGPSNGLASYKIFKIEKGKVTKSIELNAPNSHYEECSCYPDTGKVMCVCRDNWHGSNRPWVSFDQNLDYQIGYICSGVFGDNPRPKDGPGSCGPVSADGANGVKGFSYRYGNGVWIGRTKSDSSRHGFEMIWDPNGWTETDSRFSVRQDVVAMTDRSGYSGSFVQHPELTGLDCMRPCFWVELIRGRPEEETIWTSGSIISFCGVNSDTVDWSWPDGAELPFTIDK
# ASSAY NAME: biochemical
MEASURE NAME: IC50 (nM)
The reply should contain only the number, in nM.

# SMILES NOTATION, IC50, nM
rows = [
    ("CC(=O)N[C@H]1[C@H]([C@H](O)[C@H](O)CO)OC(P(=O)(O)O)=C[C@@H]1NC(=N)N", 1.2),
]

Moving on to the next molecule.
Please state recorded IC50 (tested on neuraminidase of A/WSN/1933 (H1N1) (Influenza A virus)) of CC(=O)N[C@H]1[C@H]([C@H](O)[C@H](O)CO)OC(P(=O)(O)O)=C[C@@H]1N
0.65

---

CC50 overview
# ASSAY NAME: in vitro
# DETAILS: human

# COMPOUND, MEASURE NAME, VALUE OBSERVED
records = [
    ("CC(=O)N[C@H]1[C@H]([C@H](O)[C@H](O)CO)OC(P(=O)(O)O)=C[C@@H]1NC(=N)N [1b]", "CC50", "> 50 µM"),
    ("CCC(CC)O[C@@H]1C=C(C(=O)O)C[C@H](N)[C@H]1NC(C)=O [Oseltamivir acid, oseltamivir carboxylic acid, reference compound]", "CC50", "> 100 µM"),
    ("CC(=O)N[C@H]1[C@H]([C@H](O)[C@H](O)CO)OC(P(=O)(O)O)=C[C@@H]1N [1a]", "CC50", "> 30 µM"),
]

Moving on to the next compound.
Any idea what CC50 was measured for CC(=O)N[C@H]1[C@H]([C@H](O)[C@H](O)CO)OC(C(=O)O)=C[C@@H]1N=C(N)N [Zanamivir, reference compound] ?
> 100 µM

---

# TARGET UNDER TEST: neuraminidase of A/California/7/2009 (pandemic H1N1) (Influenza A virus)
# ASSAY NAME: biochemical
MEASURE NAME: pIC50
Answer as the number alone; pIC50 is minus log10 of concentration in mol/L.

# SMILES NOTATION, MEASURE NAME, VALUE OBSERVED
rows = [
    ("CC(=O)N[C@H]1[C@H]([C@H](O)[C@H](O)CO)OC(P(=O)(O)O)=C[C@@H]1N", "pIC50", 9.05),
]

Any idea what pIC50 was measured for CC(=O)N[C@H]1[C@H]([C@H](O)[C@H](O)CO)OC(P(=O)(O)O)=C[C@@H]1NC(=N)N ?
9.10

// data source = patent US9403855B2
